test system: HCI-002 (organoid from a triple-negative breast cancer xenograft); assay: CTG-3D luminescence at 96 h relative to day-0 seeding control (ratio to day 0); higher = more growth / less cytotoxicity; PDxO 3D drug screen (set 2), 96 h, CTG-3D normalised to day-0 seeding control.; conditions: 12.5 pM; days in culture: 155
quantity kind: CTG-3D luminescence at 96 h
Reply with just the number.

- compound: "COc1cccc2c1C(=O)c1c(O)c3c(c(O)c1C2=O)C[C@@](O)(C(=O)CO)C[C@@H]3O[C@H]1C[C@H](N)[C@@H](O)[C@H](C)O1 [epirubicin]"
  CTG-3D luminescence at 96 h: 5.42
- compound: "CCOc1ccn(-c2ccc(F)cc2)c(=O)c1C(=O)Nc1ccc(Oc2ccnc(N)c2Cl)c(F)c1 [ASLAN002]"
  CTG-3D luminescence at 96 h: 4.58
- compound: "CO[C@H]1C[C@@H]2CC[C@@H](C)[C@@](O)(O2)C(=O)C(=O)N2CCCC[C@H]2C(=O)O[C@H]([C@H](C)C[C@@H]2CC[C@@H](O)[C@H](OC)C2)CC(=O)[C@H](C)/C=C(\\C)[C@@H](O)[C@@H](OC)C(=O)[C@H](C)C[C@H](C)/C=C/C=C/C=C/1C [rapamycin]"
  CTG-3D luminescence at 96 h: 3.33

Prompt: Please give the measured CTG-3D luminescence at 96 h for this compound: O=C(c1cc(Cc2n[nH]c(=O)c3ccccc23)ccc1F)N1CCN(C(=O)C2CC2)CC1 [olaparib]
Response: 4.7
